System: BRSNN: oilseed rape, canola (Brassica napus)
Experiment: Post-emergent herbicidal test, oilseed rape
Format: in vivo
Settings: post-emergence, 336 h, 140 g ai/ha, 14 days after application, read-out: Visual Growth Reduction (%) 14 Days After Application BRSNN
reported.property: pest or weed control at 140 g/ha

Given item COC(=O)c1nc(-c2ccc(Br)c3c2OC(F)(F)O3)c(F)c(N)c1Cl , the value recorded as its pest or weed control at 140 g/ha is 75%

Given item C#CCOC(=O)c1nc(-c2ccc(Cl)c3c2OCO3)c(F)c(N)c1Cl , the value recorded as its pest or weed control at 140 g/ha is 100%

Given item COC(=O)c1nc(-c2ccc(Cl)c3c2OC(F)(F)O3)c(Cl)c(N)c1Cl , the value recorded as its pest or weed control at 140 g/ha is 80%

Further cases:
Given item Nc1c(F)c(-c2cccc3c2OC(F)(F)O3)nc(C(=O)O)c1Cl , the value recorded as its pest or weed control at 140 g/ha is 95%

Given item Nc1c(F)c(-c2ccc(I)c3c2OC(F)(F)O3)nc(C(=O)O)c1Cl , the value recorded as its pest or weed control at 140 g/ha is 100%
